Biological target: human cloned CHRM4 receptor (Homo sapiens, UniProt P08173)
Sequence (P08173 1-479): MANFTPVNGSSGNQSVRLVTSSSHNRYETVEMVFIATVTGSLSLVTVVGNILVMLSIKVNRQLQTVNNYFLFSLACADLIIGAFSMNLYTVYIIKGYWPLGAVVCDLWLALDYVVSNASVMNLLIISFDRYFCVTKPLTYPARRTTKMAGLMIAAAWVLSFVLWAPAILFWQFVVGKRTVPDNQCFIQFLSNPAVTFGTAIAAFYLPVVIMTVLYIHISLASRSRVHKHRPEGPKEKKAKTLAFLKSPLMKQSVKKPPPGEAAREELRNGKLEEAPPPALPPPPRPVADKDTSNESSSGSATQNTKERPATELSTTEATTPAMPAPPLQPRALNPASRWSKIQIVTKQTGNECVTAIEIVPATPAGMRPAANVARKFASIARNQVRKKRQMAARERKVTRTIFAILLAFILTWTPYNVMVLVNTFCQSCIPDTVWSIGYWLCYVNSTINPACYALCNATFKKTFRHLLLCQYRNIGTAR
Experiment: CHRM4 Ca++ Flux Assay (M4_CHO cells, agonist mode)
Conditions: geometric mean if tested more than once, read-out: M4 FDSS EC50
Item-by-item account of EC50
Entry rule: numbers only, all in nM.

COMPOUND	EC50, nM
Fc1ccc(C2CCOCC2)c(C2CCN([C@@H]3COC4(C3)CN(c3ncco3)C4)CC2)c1	21
CCC1(COc2ccc(F)cc2C2CCN([C@@H]3COC4(C3)CN(c3nnco3)C4)CC2)COC1	85
COC(C)(C)CCOc1ccc(F)cc1C1CCN([C@@H]2COC3(C2)CN(c2nnco2)C3)CC1	97

# input for lookup
Exercise: Please look up its EC50: c1ccc([C@@H]2CCOC2)c(C2CCN([C@@H]3COC4(C3)CN(c3nnco3)C4)CC2)c1 (single isomer, unassigned) [Example 3B]
Key: 69

---

Target: human cloned CHRM2 receptor (Homo sapiens, UniProt P08172)
Construct: expressed in transfected cells; host or cells: CHO-K1 (M2_CHO)
Assay: CHRM2 Ca++ Flux Assay (M2_CHO cells, agonist mode)
Assay type: cell-based
Details: Percent Activity (PA) measured to EC100 of Carbachol; M2 CHO cells; read-out: M2 FDSS PA %
PROPERTY LABEL: Emax (%)
# value in %; strip the unit string

Example cases with answers are listed next.
MOLECULE	MEASURE UNIT	Emax
Fc1ccc(O[C@H]2CCOC2)c(C2CCN([C@@H]3COC4(C3)CN(c3nnco3)C4)CC2)c1 [Example 1H]	%	30
c1ccc(C2CCN([C@@H]3COC4(C3)CN(c3ncco3)C4)CC2)c(OC2COC2)c1 [Example 4C]	%	38
c1ccc(C2CCN([C@@H]3COC4(C3)CN(c3ncco3)C4)CC2)c(OC2CCOCC2)c1 [Example 4J]	%	0
c1ccc(C2CCN([C@@H]3COC4(C3)CN(c3nnco3)C4)CC2)c(C2CCOCC2)c1 [Example 3C]	%	34
Fc1cc(OC2CCOCC2)c(C2CCN([C@@H]3COC4(C3)CN(c3nnco3)C4)CC2)cc1F [Example 2GG]	%	0
CC(C)(O)CCOc1cc(F)ccc1C1CCN([C@@H]2COC3(C2)CN(c2nncs2)C3)CC1 [Example 5V]	%	0
Fc1ccc(OC2COC2)c(C2CCN([C@@H]3COC4(C3)CN(c3nnco3)C4)CC2)c1 [Example 1A]	%	32
Fc1cc(F)c(OC2CCOCC2)c(C2CCN([C@@H]3COC4(C3)CN(c3nnco3)C4)CC2)c1 [Example 2BB]	%	27
CC(C)(O)COc1ccc(F)cc1C1CCN([C@@H]2COC3(C2)CN(c2ncns2)C3)CC1 [Example 5C]	%	0
Fc1ccc(OC[C@@H]2COCCO2)c(C2CCN([C@@H]3COC4(C3)CN(c3nnco3)C4)CC2)c1 [Example 1F]	%	31

Exercise: Please give the measured Emax for this molecule: c1ccc(C2CCN([C@@H]3COC4(C3)CN(c3ncco3)C4)CC2)c(OC2CC3(COC3)C2)c1 [Example 4M]
Key: 0

---

Overview of recorded Emax for various compounds
Biological target: human cloned CHRM2 receptor (Homo sapiens)
Construct: expressed in transfected cells; host or cells: CHO-K1 (M2_CHO)
Experiment: CHRM2 Ca++ Flux Assay (M2_CHO cells, agonist mode)
Format: cell-based
Conditions: Percent Activity (PA) measured to EC100 of Carbachol; M2 CHO cells; read-out: M2 FDSS PA %
Response body: numeric value in %, unit text excluded.

Fc1ccc(OC2COC2)c(C2CCN([C@@H]3COC4(C3)CN(c3nncs3)C4)CC2)c1 35
Fc1ccc(OC2CC3(COC3)C2)c(C2CCN([C@@H]3COC4(C3)CN(c3nncs3)C4)CC2)c1 30
CC(C)(O)CCOc1cc(F)ccc1C1CCN([C@@H]2COC3(C2)CN(c2nnco2)C3)CC1 0
OC1(COc2ccc(F)cc2C2CCN([C@@H]3COC4(C3)CN(c3nnco3)C4)CC2)COC1 51
CC(C)(C#N)COc1ccc(F)cc1C1CCN([C@@H]2COC3(C2)CN(c2nnco2)C3)CC1 32

Exercise: Can you look up the measured Emax of `Cc1nnc(COc2ccc(F)cc2C2CCN([C@@H]3COC4(C3)CN(c3nnco3)C4)CC2)o1` for me?
Key: 67

Exercise: Entry under review: `Cc1nnc(-c2ccccc2C2CCN([C@@H]3COC4(C3)CN(c3nnco3)C4)CC2)o1` . Reported Emax?
Key: 35

---

Target: Cloned human M1 receptor (CHRM1) (Homo sapiens)
Sequence (P11229 whole entry): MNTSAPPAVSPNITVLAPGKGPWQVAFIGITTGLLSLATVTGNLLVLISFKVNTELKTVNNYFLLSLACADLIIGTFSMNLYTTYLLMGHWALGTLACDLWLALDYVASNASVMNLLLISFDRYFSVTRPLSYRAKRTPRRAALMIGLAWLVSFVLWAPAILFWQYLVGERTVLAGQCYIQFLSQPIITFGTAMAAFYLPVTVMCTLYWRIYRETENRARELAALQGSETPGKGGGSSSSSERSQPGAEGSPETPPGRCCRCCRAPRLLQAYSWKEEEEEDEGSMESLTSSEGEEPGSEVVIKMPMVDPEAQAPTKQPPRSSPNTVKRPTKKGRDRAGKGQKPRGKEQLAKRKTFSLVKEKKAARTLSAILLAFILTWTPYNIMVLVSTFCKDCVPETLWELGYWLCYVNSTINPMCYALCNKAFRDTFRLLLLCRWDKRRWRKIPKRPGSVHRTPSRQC
Assay: CHRM1 Ca++ Flux Assay (HEK293 M1 cells, agonist mode)
Settings: geometric mean if tested more than once, read-out: M1 FDSS EC50
PROPERTY LABEL: EC50
Remember to follow the number with its unit.

The examples below pair each entry with its known result.
COMPOUND	ASSAYED SYSTEM	EC50
COCCOc1ccc(F)cc1C1CCN([C@@H]2COC3(C2)CN(c2nnco2)C3)CC1	Cloned human M1 receptor (CHRM1) (Homo sapiens)	1320 nM
Fc1ccc(OC2CCOCC2)c(C2CCN([C@@H]3COC4(C3)CN(c3nnco3)C4)CC2)c1	Cloned human M1 receptor (CHRM1) (Homo sapiens)	973 nM
c1ccc([C@@H]2CCOC2)c(C2CCN([C@@H]3COC4(C3)CN(c3nnco3)C4)CC2)c1 (single isomer, unassigned) [Example 3B]	Cloned human M1 receptor (CHRM1) (Homo sapiens)	1120 nM

Next up:
Exercise: Would you kindly share the measured EC50 for `Fc1ccc(O[C@H]2CCOC2)c(C2CCN([C@@H]3COC4(C3)CN(c3nncs3)C4)CC2)c1` ?
Key: 789 nM

---

Entries annotated with measured EC50
Molecular target: UniProt P08172
Sequence (P08172 1-466): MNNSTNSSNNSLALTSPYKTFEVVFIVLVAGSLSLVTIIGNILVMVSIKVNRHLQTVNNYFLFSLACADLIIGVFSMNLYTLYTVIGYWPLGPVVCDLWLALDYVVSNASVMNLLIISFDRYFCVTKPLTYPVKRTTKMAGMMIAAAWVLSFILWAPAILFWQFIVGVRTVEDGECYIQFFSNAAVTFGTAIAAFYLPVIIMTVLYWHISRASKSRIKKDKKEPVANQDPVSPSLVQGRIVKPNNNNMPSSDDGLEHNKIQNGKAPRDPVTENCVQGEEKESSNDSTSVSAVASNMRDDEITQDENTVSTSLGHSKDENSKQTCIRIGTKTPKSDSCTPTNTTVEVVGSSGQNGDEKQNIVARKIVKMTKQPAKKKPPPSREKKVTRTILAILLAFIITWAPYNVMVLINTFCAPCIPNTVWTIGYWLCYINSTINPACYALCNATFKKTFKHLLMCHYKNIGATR
Assay: CHRM2 Ca++ Flux Assay (M2_CHO cells, agonist mode)
Details: M2 CHO cells, agonist mode; geometric mean if tested more than once; read-out: M2 FDSS EC50
Procedure: The above examples were characterized by measuring the intracellular mobilization of Ca^++ ions caused by signaling events mediated by the receptor. […] Prior to the day of the assay, stable M2 CHO cells were thawed and plated on Greiner 384 well TC treated plate at a density of 12K cells/well and kept overnight in a humidified atmosphere (5% CO2) at 37° C. […] The Percent Activity (PA) was measured to EC100 of Carbachol. […]

Here is how some compounds turned out for EC50.
COMPOUND	EC50
COCCOc1ccc(F)cc1C1CCN([C@@H]2COC3(C2)CN(c2ncco2)C3)CC1	> 25 µM
CC(C)(O)COc1ccc(F)cc1C1CCN([C@@H]2COC3(C2)CN(c2ncco2)C3)CC1	> 25 µM
COCCOc1ccc(F)cc1C1CCN([C@@H]2COC3(C2)CN(c2nnco2)C3)CC1	> 25 µM

Exercise: Record request: EC50 value, item CC(C)(O)[C@H]1C[C@H](Oc2ccc(F)cc2C2CCN([C@@H]3COC4(C3)CN(c3nnco3)C4)CC2)C1 (single isomer, unassigned) [Example 2V]
Key: 1.08 µM
